Assay: yeast display, Sf9 membrane polyspecificity reagent, FACS + sequencing; frameworks hold sequencing errors
reportedEndpoint: polyreactivity (PSR sort gate)

Past entries and their recorded results:
{"columns": ["chainSequence", "measurement"],
 "data": [
  ["EVQLGESGGGLVQAGGSLRLSCAASGSTFNTNAMGWYRQAPGKERELVAAISWSSTRTYYADSVKGRFTISRDNAKNTVYLQINSLKPEDTAVYYCAGRSVGGRYFKGNYWGHGTQVTVSS", "high polyreactivity"],
  ["QVQHVQTLGGLDQAGGSLRLSFSDSGSNFGYYSIVLYRLAPGKERELVAAITGSGGGTYYADSVKGRLTISRDNAKNTVYLQMNSLKPEDTAVYYCAKDRNYRIYWGEYWGHGTQVTVSS", "low polyreactivity"],
  ["QVQLVESGGGLVQAGGSLRLICAASGFTLDQYAMGWYRPAPGKERELVAVITSGGNTYYADSVKGRFTISRDNAKNTVYLQMNSLKPEDTAVYYCAKDVSDPFYDPFEYWGQGTQVTVSS", "low polyreactivity"],
  ["QVQLVESGRGLVQAGGSLRLSCAASGITFRYYAMGWYRPAPGKERELVAAITRGGRTNYADSVKGRFTISRDNAKNTVYLQMNSLKPEDTAVYYCATGRDSNFGNSYYYWGQGTQVTVSS", "high polyreactivity"],
  ["QVQLVESGGGLVQAGGSLRLSCAASGSIFWGYAMGWYRQAPGKERELVAVITWSVGRTYYADSVKGRFTISRDNAKNTVYLQMNSLKPEDTAVYYCNAKSWYGGSYYRYDYWGQGTQVTVSS", "low polyreactivity"]
]}

Okay, here is my list. What is polyreactivity (PSR sort gate) for each of these?
1. QVQLVESGGGLVQAGGSLRLSGAASGSTCYFNAQGWFRPAPGKERELVAAITYSGGSTYYADSVKGRFTISRDNAKNTVYLQLNSLKPEDTAVYYCAAQWRRHSTRSRYYYWGQGTQVTVSS
2. QVQLEESGGGLVQAGGSLRLSCAASGSTFTLNAMGWYRQAPGKERELVADISWSSGRTYYADSVKGRFTISRDNAKNTVYLQMNSLKPEDTAVYYCATDDFWNVKFYAYYPEFDYWGQGTQVTVSS
3. QVQLVESGGGLVQAGGSLRLSCAASGSIFQSNAMGWSRQAPGKERELVAAISSRGGRTYYADSVKGRFTISRDNAKYTVYLQLNSLKPEDTAVYYCAVVPFTEHDYWGQGTQVTVSS
4. QVQLVESVGGLVQAGGSLRLSCAASGFNFPGYAMGWYRPAPGKERELVAAITGSGGRTYYADSVKGRFTISRDNAKNTVYLQMISLKPEDTAVYYCLARSYYNWYDYWGKGTQVTVSS

// result
["high polyreactivity", "low polyreactivity", "high polyreactivity", "high polyreactivity"]

Report polyreactivity (PSR sort gate) for every entry below.
1. QVQLVESGGGLVQAGGSLRLSCAASGSTFPRYAMGWYRQAPGKARELVAAINSSGSSTYYADSVKGRFTISRDNAKNTVYLQMNSLKPEDTAVYYCAAKARYRDYYYWGQGTQVTVSS
2. QVQLVESGGGLVQAGGSLRLSCAASGSIFDVNPMGWYRQAPGKERELVAAISQRGTRTYYADSVKGRFTISRDNAKNTVYLQMNSLKPEDTAVYSCNRGGWRQYDSWGQGTQVTVSS

// result
high polyreactivity
high polyreactivity

Measured values drawn from the nanobody polyreactivity screen of Harvey et al. (2022) for this set.
